Readings of In vitro activity (%) vs. Glucagon, cAMP EC50 for the listed binders
EXPERIMENTAL TARGET: human GCG receptor (human, UniProt P47871 26-477)
Sequence (P47871 26-477): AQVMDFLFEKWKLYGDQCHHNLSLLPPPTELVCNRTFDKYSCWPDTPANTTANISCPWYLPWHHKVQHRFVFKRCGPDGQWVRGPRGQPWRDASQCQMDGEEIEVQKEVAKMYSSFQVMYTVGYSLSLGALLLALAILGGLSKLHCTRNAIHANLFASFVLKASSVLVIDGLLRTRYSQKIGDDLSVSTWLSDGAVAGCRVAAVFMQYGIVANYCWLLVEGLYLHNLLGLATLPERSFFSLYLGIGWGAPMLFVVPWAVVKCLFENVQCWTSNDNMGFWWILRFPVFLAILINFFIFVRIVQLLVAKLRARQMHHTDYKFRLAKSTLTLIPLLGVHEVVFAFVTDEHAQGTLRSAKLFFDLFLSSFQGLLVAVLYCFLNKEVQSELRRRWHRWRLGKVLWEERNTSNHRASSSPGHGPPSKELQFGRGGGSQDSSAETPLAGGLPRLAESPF
ASSAY SUMMARY: cell-based or functional assay
Where no end group is shown, it is not given here. [ ]: non-standard residue; d: D form. The star is where a group is joined. Acetyl(2-(4-imidazolyl)) = O=C(Cc1c[nH]cn1)*; Aib = CC(C)(N)C(=O)O
ENDPOINT: In vitro activity (%) vs. Glucagon, cAMP EC50

1) H[Aib]QGTFTSDVSSYLLGQQQKEFIAWLVKGC [triple agonist of SEQ ID NO: 4] = < 0.1%
2) [Acetyl(2-(4-imidazolyl))]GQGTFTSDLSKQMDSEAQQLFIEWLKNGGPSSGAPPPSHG [triple agonist of SEQ ID NO: 16] = < 0.1%
3) H[Aib]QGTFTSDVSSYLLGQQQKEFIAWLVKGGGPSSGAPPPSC [triple agonist of SEQ ID NO: 5] = < 0.1%
